I'd appreciate it if you could supply Percent Effect values for the items below.
System: Wolbachia pipientis
protocol.details: Anti-Wolbachia Cell-Based Screen
Format: functional
Set-up: scale not given: in the data most compounds retested in dose-response had high values
settings: 5 µM
The whole screen tested about 48,000 compounds, of which about 13,000 (27%) showed an effect of 50% or more. The list shows a part of the results.
Answers are plain numbers, in %.

molecule	Percent Effect / %
O=C(O)C(F)(F)F.O=C(c1ccccc1)N1CCS(=O)(=O)[C@@H]2CCNCC[C@@H]21	-7.979
CCn1cnnc1CNC(=O)NC(c1ccc(OC)cc1)C1CC1 (stereo unspecified)	-3.354
CC(=O)N1CCN(C(C)C)CC(COc2ccccc2)C1 (stereo unspecified)	109.4
Cc1ccc(OCC2CCCN(C(=O)CN3CCOCC3)C2)cc1 (stereo unspecified)	-2.27
CN(C(=O)c1cccc2[nH]ncc12)C1CCN(c2ccccn2)CC1	-1.361
Cc1cccc(C(=O)N(C)C2CCN(c3ccccn3)CC2)c1C	141.7

For each listed entry, give its Percent Effect.
1. Cc1nccc(N2CCC(Cc3cccc(C(=O)O)c3)CC2)n1
2. COc1cccc(OCC2CCCN(C3CCN(C(C)=O)CC3)C2)c1 (stereo unspecified)

**Result**
[4.494, -9.945]

For each listed entry, give its Percent Effect.
1. N#Cc1cn(C2CC2)c(=O)n(Cc2cc(-c3cccs3)on2)c1=O
2. COc1ccccc1C(=O)N(C)C1CCN(c2ccccn2)CC1
3. Cc1ccccc1CC(=O)N(C)C1CCN(c2ccccn2)CC1

**Result**
[15.09, 177.1, -4.877]

###

Test system: Wolbachia pipientis
protocol.details: Anti-Wolbachia Cell-Based Screen
Assay type: functional
Design: scale not given: in the data most compounds retested in dose-response had high values
settings: 5 µM
The campaign covered roughly 48,000 compounds. About 13,000 (27%) showed an effect of 50% or more. The list shows a part of the results.
measurement.label: Percent Effect (%)
Give bare numbers, in %.

compound	Percent Effect / %
Cc1cc(-c2cnc(NC3CC3)nc2-c2ccoc2C)on1	65.28
CCN1CCC(N2CCN(c3cc(-c4nc(C)no4)ccn3)CC2)CC1	10.41

For each listed entry, give its Percent Effect.
1. CCN1CCN(c2ncc(-c3cc(C)no3)c(-c3ccoc3C)n2)CC1
2. OC1CCCN(Cc2ccc(F)c3cccnc23)C1 (stereo unspecified)
3. Cl.Cn1nc(C2CCCN(Cc3cc(F)ccc3F)C2)c2nccnc21 (stereo unspecified)

**Result**
1: -0.7712; 2: 11.38; 3: 109

According to the records, this compound CCc1ncncc1C(=O)NCCNc1ncnc2sccc12 displays Percent Effect of -23.73

###

I'd appreciate it if you could supply Percent Effect values for the items below.
System: Wolbachia pipientis
protocol.details: Anti-Wolbachia Cell-Based Screen
Assay type: functional
Parameters: scale not given: in the data most compounds retested in dose-response had high values
settings: 5 µM
Out of some 48,000 compounds screened, about 13,000 (27%) showed an effect of 50% or more. The list shows a part of the results.
Give bare numbers, in %.

Example compounds with recorded Percent Effect:
compound	measurement.label	readout.value
COc1ccccc1CCN[C@@H]1c2ccccc2C2(CCNCC2)[C@H]1O	Percent Effect	-1.43
CCOC(=O)C1(Cc2ccccc2-c2ccccc2OC)CCNCC1.Cl	Percent Effect	172.1

For each listed entry, give its Percent Effect.
1. COc1ccc(F)cc1NC(=O)NCC1(C)COC1
2. CCOC(=O)C1(Cc2cccc(OC)c2)CCN(Cc2ccon2)CC1
3. CCOc1ccc(CNCCCn2ccnc2)cc1Cl.Cl.Cl
4. COc1ccc(CN2C[C@@H]3CCCO[C@@H]3[C@H](NC(=O)CC3CC3)C2)cc1
5. COc1ccc(F)cc1-c1ccccc1CC1(C(=O)O)CCOCC1
6. Cc1cccc(C(=O)N2CCc3ncnc(C4CCOC4)c3CC2)n1.O=C(O)C(F)(F)F (stereo not given)
7. Cc1ccc(C(=O)NCCC2CN(C3CCCC3)CCO2)c(C)c1 (stereo not given)

**Result**
1. 5.652
2. 2.808
3. 1.454
4. -5.236
5. 118.1
6. -11.48
7. 105.7
